assay explanation: yeast display, Sf9 membrane polyspecificity reagent, FACS + sequencing; frameworks hold sequencing errors
metric: polyreactivity (PSR sort gate)

QVQLVESGGGLVKAGGSLRLSCAASGRIDSTYAMGWSRQAPGKERDLVAAINKIGGSTYYADSVKGRFTISRDNEKNTVYLQMNSLKPEDTAVYYCAADAPYYPVRRYYYWGQGTQVTVSA | low polyreactivity
QVQLVESGGGLVQAGGSLRLSCAASGLTFRNYAMGWYRQAPGKEREVVADISWSGGSTYYADSVKGRFTISRDNAKITVYLQMNSLKPEDTAVYYCAARFHYPGGPRYYYWGQGTQVTVSS | high polyreactivity
QVQLVESGGGLVQAGGSLRLSCAASGSTLKLYVMGWYRQAPGKERELVAAISYSGGSTNYADSVKGRFTISRDNAKNTVYLQMNSLKPEDTAVYYCAAAGYKWYYKYYYWGQGTQVTVSS | high polyreactivity
QVQLVESGGGLVQAGGSLRLSCAASGRIFTYYAMGWYRQAPGKERELVAAISYSGSSTYYADSVKGRFTISRDNAKNTVYLQMNSLKPEDTAVYYCAAAPSGHYLAYGYWGQGTQVTVSS | high polyreactivity
QVQLVESGGGLVQAGGSLRLSCAASGFIFYRDAMGWYRPAPGKERELVAAISSRGVSTYYADSVKGRFTISRDNAKNTVYLLMNSLKPEDTAVYSCARISRYYALYDYWGQGTQVTVSS | high polyreactivity

What value of polyreactivity (PSR sort gate) has been recorded for this entry: "QVQLVESGGGLVQAGGSLRLSCAASGRIFIDYAMGWYRQAPGKERELVATISESGGSTYYADSVKARFTISRDNAKNTVYLQMNSLKPEDTAVYYCAAVGDNLATAEYDFWGQGTKVTVSS"
low polyreactivity

Similarly, "QVQLVESGGGLVQAGGSLRLSCAASGSIFGTYTMGWYRQAPGKERELVAAISRSGTSTYYADSVKGRFTISRDNAKNTVYLQMNSLKPEDTAVYYCAASPDPYWRRMDYWGQGTQVTVSS" ?
high polyreactivity

Similarly, "QVQLVESGGGLVQAGGSLRLSCAASGITFSRYAMGWYRQAPGKERELVAAISWSGTSTYYADSVKGRFTISRDNAKNTVYLQMNSLKPEDTAVYYCAASYGYYRYGYWGQGTQVTVSS" ?
high polyreactivity
